Tested on: BPI
Assay: Semi-quantitative RT-PCR of BPI transcript in KB cells
Assay type: cell-based, human
Conditions: KB cells, 8 hr, 28 cycles of PCR; approximate; read-out: EC50 of BPI transcript induction (dose response)
pEC50: −log10 of the molar value.
observable: pEC50

molecule="O=C(O)CCC[C@H](O)[C@H](O)/C=C/C=C/C=C\\C=C\\[C@@H](O)COc1ccc(F)cc1 [ATLa, 15-epi-16-(para-fluoro)-phenoxy-LXA4]" observable=pEC50 reading=~7.30
